The origin of these recorded values is patent US9062041B2.

target: EP4 subtype of the human PGE2 receptor (Homo sapiens); assay: cAMP antagonism test on the human EP4 receptor (HTRF cAMP detection); format: cell-based; settings: selectivity towards hEP4, IC50 measured by cAMP antagonism test
Sequence (P35408 whole entry): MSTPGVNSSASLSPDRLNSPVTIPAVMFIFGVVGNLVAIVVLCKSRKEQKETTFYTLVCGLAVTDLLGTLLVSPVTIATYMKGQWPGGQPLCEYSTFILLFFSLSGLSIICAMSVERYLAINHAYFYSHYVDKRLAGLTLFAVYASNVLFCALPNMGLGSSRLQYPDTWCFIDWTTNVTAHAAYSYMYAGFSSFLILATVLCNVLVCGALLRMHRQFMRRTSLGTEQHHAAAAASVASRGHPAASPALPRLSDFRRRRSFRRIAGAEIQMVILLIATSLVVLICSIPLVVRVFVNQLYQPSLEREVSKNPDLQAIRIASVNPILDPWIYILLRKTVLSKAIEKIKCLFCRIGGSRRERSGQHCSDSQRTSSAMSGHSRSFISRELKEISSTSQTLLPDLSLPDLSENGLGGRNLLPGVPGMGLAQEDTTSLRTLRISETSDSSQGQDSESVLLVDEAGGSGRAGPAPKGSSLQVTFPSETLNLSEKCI
METRIC NAME: Selectivity hEP2/hEP4

The following molecules have reported results that may help.
{"MOLECULE": "Cc1c(C(=O)NCC2COCCO2)ccc2nn(CC3CCN(C(=O)c4ccc(Cl)cc4)CC3)cc12 (single isomer, unassigned) [Example 414]", "SYSTEM TESTED": "EP4 subtype of the human PGE2 receptor (Homo sapiens)", "METRIC NAME": "Selectivity hEP2/hEP4", "MEASURED RESULT": "xx (xx: 10-100)"}
{"MOLECULE": "COCCNC(=O)c1ccc2nn(CC3CCN(C(=O)c4ccc(C(C)(C)O)cc4)CC3)cc2c1C", "SYSTEM TESTED": "EP4 subtype of the human PGE2 receptor (Homo sapiens)", "METRIC NAME": "Selectivity hEP2/hEP4", "MEASURED RESULT": "xxx (xxx > 100)"}
{"MOLECULE": "Cc1c(C(=O)NCC(F)(F)F)ccc2nn(CC3CCN(C(=O)c4ccc(Br)cc4)CC3)cc12", "SYSTEM TESTED": "EP4 subtype of the human PGE2 receptor (Homo sapiens)", "METRIC NAME": "Selectivity hEP2/hEP4", "MEASURED RESULT": "xxx (xxx > 100)"}
{"MOLECULE": "COc1c(C(=O)NCC(F)(F)F)ccc2nn(CC3CCN(C(=O)c4ccc(Cl)cc4)CC3)cc12", "SYSTEM TESTED": "EP4 subtype of the human PGE2 receptor (Homo sapiens)", "METRIC NAME": "Selectivity hEP2/hEP4", "MEASURED RESULT": "xx (xx: 10-100)"}
{"MOLECULE": "Cc1c(C(=O)NCC2CCCCO2)ccc2nn(CC3CN(C(=O)c4ccc(Cl)cc4)C3)cc12 (racemic) [Example 144]", "SYSTEM TESTED": "EP4 subtype of the human PGE2 receptor (Homo sapiens)", "METRIC NAME": "Selectivity hEP2/hEP4", "MEASURED RESULT": "xxx (xxx > 100)"}
{"MOLECULE": "CCOc1c(C(=O)NCCOC)ccc2nn(CC3CN(C(=O)c4ccc(Cl)cc4)C3)cc12", "SYSTEM TESTED": "EP4 subtype of the human PGE2 receptor (Homo sapiens)", "METRIC NAME": "Selectivity hEP2/hEP4", "MEASURED RESULT": "xx (xx: 10-100)"}

Now examine the next entry.
Hello, I am looking for reported Selectivity hEP2/hEP4 with EP4 subtype of the human PGE2 receptor (Homo sapiens) for COCCNC(=O)c1ccc2nn(CC3CCN(C(=O)c4ccc(-c5ccc(OC)cn5)cc4)CC3)cc2c1C . Could you help?
xxx (xxx > 100)
